Catalogue of pIC50 readings, one per entry.
assay target: NaV1.7 (Homo sapiens)
Construct: expression vector containing the full-length cDNA coding for the desired human sodium channel α-subunit
Sequence (Q15858 1-1977 isoform Q15858-3): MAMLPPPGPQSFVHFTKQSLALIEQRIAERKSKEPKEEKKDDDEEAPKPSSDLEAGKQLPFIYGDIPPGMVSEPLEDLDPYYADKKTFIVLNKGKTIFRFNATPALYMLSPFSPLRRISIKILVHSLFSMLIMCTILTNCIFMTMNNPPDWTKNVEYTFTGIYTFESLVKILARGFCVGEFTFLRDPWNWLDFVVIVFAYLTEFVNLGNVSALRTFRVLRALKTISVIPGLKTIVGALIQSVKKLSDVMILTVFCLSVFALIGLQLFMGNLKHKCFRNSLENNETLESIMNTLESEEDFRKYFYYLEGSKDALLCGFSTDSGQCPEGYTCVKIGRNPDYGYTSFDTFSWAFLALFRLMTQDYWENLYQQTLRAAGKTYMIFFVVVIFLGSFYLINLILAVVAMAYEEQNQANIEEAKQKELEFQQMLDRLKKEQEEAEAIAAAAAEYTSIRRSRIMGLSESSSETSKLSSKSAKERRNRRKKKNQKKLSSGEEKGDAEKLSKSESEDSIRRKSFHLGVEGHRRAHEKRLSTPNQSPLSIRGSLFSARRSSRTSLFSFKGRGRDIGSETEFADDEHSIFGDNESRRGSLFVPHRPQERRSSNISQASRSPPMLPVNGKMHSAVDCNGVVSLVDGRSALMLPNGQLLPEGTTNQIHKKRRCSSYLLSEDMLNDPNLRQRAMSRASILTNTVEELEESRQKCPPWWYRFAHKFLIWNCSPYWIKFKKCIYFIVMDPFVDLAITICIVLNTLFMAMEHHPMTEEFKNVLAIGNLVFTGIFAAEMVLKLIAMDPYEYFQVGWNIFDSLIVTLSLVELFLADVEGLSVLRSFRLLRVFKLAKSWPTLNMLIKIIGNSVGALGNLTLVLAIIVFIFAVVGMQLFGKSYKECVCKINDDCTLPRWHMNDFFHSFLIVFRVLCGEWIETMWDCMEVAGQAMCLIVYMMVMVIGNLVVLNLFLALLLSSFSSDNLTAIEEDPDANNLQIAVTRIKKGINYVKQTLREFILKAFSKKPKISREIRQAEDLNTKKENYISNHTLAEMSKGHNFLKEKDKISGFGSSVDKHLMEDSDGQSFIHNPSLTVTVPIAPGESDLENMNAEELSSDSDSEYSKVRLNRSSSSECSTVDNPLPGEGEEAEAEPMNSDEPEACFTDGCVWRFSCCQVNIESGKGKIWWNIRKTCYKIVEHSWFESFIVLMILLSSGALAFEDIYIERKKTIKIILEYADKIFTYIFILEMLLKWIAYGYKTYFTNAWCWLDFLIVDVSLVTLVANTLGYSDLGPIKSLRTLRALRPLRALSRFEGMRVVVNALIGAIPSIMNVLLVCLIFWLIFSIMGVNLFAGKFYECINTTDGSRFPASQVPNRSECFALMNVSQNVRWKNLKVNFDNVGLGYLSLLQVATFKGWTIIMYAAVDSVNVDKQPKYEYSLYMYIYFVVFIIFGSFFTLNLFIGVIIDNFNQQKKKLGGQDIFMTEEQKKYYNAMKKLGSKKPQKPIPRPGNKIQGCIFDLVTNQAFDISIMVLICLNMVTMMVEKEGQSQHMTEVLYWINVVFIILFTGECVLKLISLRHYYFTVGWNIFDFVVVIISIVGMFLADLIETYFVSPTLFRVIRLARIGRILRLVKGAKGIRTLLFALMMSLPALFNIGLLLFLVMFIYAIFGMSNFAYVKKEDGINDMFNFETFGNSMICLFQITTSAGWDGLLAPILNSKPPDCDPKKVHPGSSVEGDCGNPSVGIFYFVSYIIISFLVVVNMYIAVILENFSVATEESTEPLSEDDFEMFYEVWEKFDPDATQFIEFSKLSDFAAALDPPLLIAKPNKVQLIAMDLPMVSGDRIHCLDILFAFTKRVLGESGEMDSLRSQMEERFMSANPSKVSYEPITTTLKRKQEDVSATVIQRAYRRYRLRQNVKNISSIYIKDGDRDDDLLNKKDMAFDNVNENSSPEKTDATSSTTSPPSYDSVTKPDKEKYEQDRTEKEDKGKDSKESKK
Sequence (Q07699 19-218 partner): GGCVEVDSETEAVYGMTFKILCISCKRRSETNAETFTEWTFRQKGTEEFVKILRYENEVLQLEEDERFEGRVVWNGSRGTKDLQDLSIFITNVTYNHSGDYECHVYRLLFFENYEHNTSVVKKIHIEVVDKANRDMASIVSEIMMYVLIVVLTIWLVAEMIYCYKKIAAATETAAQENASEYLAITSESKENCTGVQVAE
test summary: Patch voltage clamp electrophysiology assay (EP), NaV1.7 in HEK-293 cells
measurement context: HEK-293, β1 coexpressed, held at -60 mV (inactivated state)
pIC50: −log10 of the molar value. Structures can show the parent of a compound that is named as a salt.
endpoint: pIC50

1) Cc1nn([C@@H]2CCN([C@H](C)c3cc(Cl)cc(Cl)c3)C2)c2cc(F)c(C(=O)NS(C)(=O)=O)cc12 [Example 16, trifluoroacetic acid salt]; 7.00
2) Cc1nn(C2CN(C(c3ccccc3)c3ccccc3)C2)c2cc(F)c(C(=O)NS(C)(=O)=O)cc12; 7.06
3) Cc1nn(C2CCCCC2)c2cc(F)c(C(=O)NS(C)(=O)=O)cc12; 4.96
4) Cc1nn(C2CCC(C(C)C)CC2)c2cc(F)c(C(=O)NS(=O)(=O)N3CCC3)cc12 (stereo not drawn); 7.41
5) Cc1nn(C2CCC(C)CC2)c2cc(F)c(C(=O)NS(=O)(=O)N3CCC3)cc12 (stereo not drawn); 6.00
6) Cc1nn(CC2CN(C(c3ccccc3)c3ccccc3)C2)c2cc(F)c(C(=O)NS(C)(=O)=O)cc12; 6.26
7) Cc1nn([C@@H]2CCN([C@H](C)c3cc(Cl)cc(Cl)c3)C2)c2cc(F)c(C(=O)NS(=O)(=O)C3CC3)cc12 [Example 17, 2,2,2-trifluoroacetate]; 7.35
8) Cc1nn(C2CCN(Cc3cc(Cl)cc(Cl)c3)CC2)c2cc(F)c(C(=O)NS(=O)(=O)C3CC3)cc12 [Example 6, 2,2,2-trifluoroacetate]; 7.14
9) Cc1nn([C@@H]2CCN([C@@H](C)c3cc(Cl)cc(Cl)c3)C2)c2cc(F)c(C(=O)NS(C)(=O)=O)cc12 [Example 18, trifluoroacetic acid salt]; 6.82
10) Cc1nn(C2CCC(C)CC2)c2cc(F)c(C(=O)NS(C)(=O)=O)cc12 (stereo not drawn); 5.70
11) Cc1nn([C@@H]2CCN(Cc3ccc(Cl)cc3C(F)(F)F)C2)c2cc(F)c(C(=O)NS(=O)(=O)C3CC3)cc12 [Example 20, trifluoroacetic acid salt]; 7.21
12) Cc1nn(CC23CC4CC(CC(C4)C2)C3)c2cc(F)c(C(=O)N[S@TB2](C)(=O)=O)cc12; 5.92
13) Cc1nn(C2CCN(Cc3cc(Cl)cc(OC(F)(F)F)c3)CC2)c2cc(F)c(C(=O)NS(C)(=O)=O)cc12 [Example 4, 2,2,2-trifluoroacetate]; 6.38
14) Cc1nn(C2CCN([C@@H](C)c3cc(Cl)cc(Cl)c3)CC2)c2cc(F)c(C(=O)NS(=O)(=O)C3CC3)cc12; 7.48
15) Cc1nn(C2CCN(Cc3cc(OC(F)(F)F)ccc3Br)CC2)c2cc(F)c(C(=O)NS(=O)(=O)C3CC3)cc12 [Example 7, 2,2,2-trifluoroacetate]; 8.05
16) Cc1nn(C2CCC(C(C)(C)C)CC2)c2cc(F)c(C(=O)NS(C)(=O)=O)cc12 (stereo not drawn); 6.49
17) Cc1nn([C@@H]2CCN([C@H](C)c3cc(Cl)cc(OC(F)(F)F)c3)C2)c2cc(F)c(C(=O)NS(=O)(=O)C3CC3)cc12 [Example 22, trifluoroacetic acid salt]; 6.96
18) Cc1nn([C@@H]2CCN(Cc3cc(Cl)cc(OC(F)(F)F)c3)C2)c2cc(F)c(C(=O)NS(=O)(=O)C3CC3)cc12 [Example 11, 2,2,2-trifluoroacetate]; 7.64
19) Cc1nn(C2CCC(C(C)(C)C)CC2)c2cc(F)c(C(=O)NS(=O)(=O)N3CCC3)cc12 (stereo not drawn); 6.85
20) Cc1nn(C23CC4CC(CC(C4)C2)C3)c2cc(F)c(C(=O)NS(=O)(=O)N3CCC3)cc12; 6.00
21) Cc1nn(-c2ccc3c(c2)CCCC3)c2cc(F)c(C(=O)NS(=O)(=O)N3CCC3)cc12; 7.36
22) Cc1nn(C2CCC(C(C)C)CC2)c2cc(F)c(C(=O)NS(C)(=O)=O)cc12 (stereo not drawn); 7.10
23) Cc1nn([C@@H]2CCN(Cc3cc(Cl)ccc3C(F)(F)F)C2)c2cc(F)c(C(=O)NS(=O)(=O)C3CC3)cc12 [Example 12, 2,2,2-trifluoroacetate]; 7.49
24) Cc1nn(-c2cnc(OCC(C)C)c(Cl)c2)c2cc(F)c(C(=O)NS(=O)(=O)N3CCC3)cc12; 7.15
25) Cc1nn(C2CCN(Cc3cc(Cl)ccc3C(F)(F)F)CC2)c2cc(F)c(C(=O)NS(=O)(=O)C3CC3)cc12; 7.59
26) Cc1nn(C2CCN(Cc3cc(C(F)(F)F)cc(Cl)c3F)CC2)c2cc(F)c(C(=O)NS(=O)(=O)C3CC3)cc12 [Example 2, 2,2,2-trifluoroacetate]; 7.07
27) Cc1nn(-c2ccc3c(c2)CCCC3)c2cc(F)c(C(=O)NS(C)(=O)=O)cc12; 6.80

The reported numbers originate from patent US10899732B2.
